Recorded values, source patent EP4768489A1.

Measured Cmax values are reported for all entries that follow.
# assay name: in vivo
# test conditions: mouse, po, 10 mg/kg
// note: answer is a bare numeric in ng/mL

Here is how some compounds turned out for Cmax.
COc1cc(O[C@H]2C(C)(C)[C@H](NC(=O)c3ccc(N4CCC(CN5CCc6c(ccc7c(C8CCC(=O)NC8=O)noc67)C5)CC4)cc3)C2(C)C)ccc1C#N (some centres unmarked) | 786
COc1cc(O[C@H]2C(C)(C)[C@H](NC(=O)c3ccc(N4CCC(CN5CCc6ccc7c(C8CCC(=O)NC8=O)noc7c6CC5)CC4)cc3)C2(C)C)ccc1C#N (some centres unmarked) | 620
COc1cc(O[C@H]2C(C)(C)[C@H](NC(=O)c3cnc(N4CCC(CN5CCc6c(ccc7c(C8CCC(=O)NC8=O)noc67)C5)CC4)nc3)C2(C)C)ccc1C#N (some centres unmarked) | 1360
COc1cc(O[C@H]2C(C)(C)[C@H](NC(=O)c3cnc(N4CCC(CN5CCc6c(ccc7c(C8CCC(=O)NC8=O)noc67)C5)CC4)cn3)C2(C)C)ccc1C#N (some centres unmarked) | 1010

Now for another entry.
compound COc1cc(O[C@H]2C(C)(C)[C@H](NC(=O)c3ccc(N4CCC(CN5Cc6ccc7c(C8CCC(=O)NC8=O)noc7c6C5)CC4)cc3)C2(C)C)ccc1C#N (some centres unmarked) , Cmax observed: 2810
